// data source = patent US20180362585A1

Study Target: T1, human plasma Kallikrein (human, UniProt P03952 20-638)
T1 construct: also called hPK; human PK
T1 sequence (P03952 20-638 limits assumed): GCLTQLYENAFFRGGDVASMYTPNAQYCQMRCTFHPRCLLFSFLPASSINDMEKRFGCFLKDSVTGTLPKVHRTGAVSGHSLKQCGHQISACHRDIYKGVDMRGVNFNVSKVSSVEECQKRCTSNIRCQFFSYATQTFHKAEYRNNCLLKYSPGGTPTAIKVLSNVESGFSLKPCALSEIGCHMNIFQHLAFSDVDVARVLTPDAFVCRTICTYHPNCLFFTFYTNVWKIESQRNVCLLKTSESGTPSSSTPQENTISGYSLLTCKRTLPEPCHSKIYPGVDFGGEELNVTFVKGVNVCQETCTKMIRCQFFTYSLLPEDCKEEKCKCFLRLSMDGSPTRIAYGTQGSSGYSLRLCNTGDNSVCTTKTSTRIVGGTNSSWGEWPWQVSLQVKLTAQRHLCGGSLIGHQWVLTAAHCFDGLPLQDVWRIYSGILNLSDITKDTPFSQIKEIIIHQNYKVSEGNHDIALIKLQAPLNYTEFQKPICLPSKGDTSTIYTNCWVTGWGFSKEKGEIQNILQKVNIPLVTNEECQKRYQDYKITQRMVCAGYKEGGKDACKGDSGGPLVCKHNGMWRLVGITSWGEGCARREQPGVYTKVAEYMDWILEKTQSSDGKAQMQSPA
Test Details: phage binding assay
Numbered stars: 1 amine (or outer) side, 2 acyl side, 3 side chain; on linkers, the order of the positions; unused ones are H or OH. Bridge positions count the residues as written; N and C are the ends. Ends that are not written are not given here. TBMB = c1c(C[*:1])cc(C[*:3])cc1C[*:2]
Measure: RANK (Kallikrein binding)

query: For CSWPYRCTHQDLC (linker 1-7-13 via TBMB, on phage) , what is its reported RANK (Kallikrein binding)?
result: 10

query: For CSFPYKCTHQDLC (linker 1-7-13 via TBMB (inferred), on phage) , what is its reported RANK (Kallikrein binding)?
result: 22

query: For CSFPYRCTHQDLC (linker 1-7-13 via TBMB (inferred), on phage) , what is its reported RANK (Kallikrein binding)?
result: 5

query: For CSWPARCTHQDLC (linker 1-7-13 via TBMB, on phage) , what is its reported RANK (Kallikrein binding)?
result: 1

query: For CSFMYKCTHQDLC (linker 1-7-13 via TBMB (inferred), on phage) , what is its reported RANK (Kallikrein binding)?
result: 37

query: For CSWQARCTHQDLC (linker 1-7-13 via TBMB, on phage) , what is its reported RANK (Kallikrein binding)?
result: 42
